biological target: T1, human Tim-3 expressed on the cell surface (human, UniProt Q8TDQ0 22-301); experiment: flow cytometry, CHO-human Tim-3 cells;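 also: antibodies bound on ice for 60 min, detected by PE anti-human IgG Fc secondary, mean fluorescence intensity fit to one-site specific binding with Hill slope, parental CHO cells as nonspecific control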
T1 construct: also called hTim-3; Human Tim-3 (CHO)
measurement.type: Kd (nM)
Response body: numeric value in nM, unit text excluded.

As a guide, the following entries are already answered.
INSERT INTO measurements (binder, measurement) VALUES
  ('h22E11-VK2-28 × h22E11-VH1-69 (antibody, V domains shown, Humanized m22E11) VH: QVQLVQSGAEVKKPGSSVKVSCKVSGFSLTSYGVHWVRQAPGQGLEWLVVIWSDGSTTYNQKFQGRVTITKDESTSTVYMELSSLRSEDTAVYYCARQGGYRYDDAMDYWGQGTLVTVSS VL: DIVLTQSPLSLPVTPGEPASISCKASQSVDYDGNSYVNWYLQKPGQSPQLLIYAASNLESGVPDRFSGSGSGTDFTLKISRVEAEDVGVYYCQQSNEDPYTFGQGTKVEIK', 0.7),
  ('h22E11-VK4-1 × h22E11-VH1-69 (antibody, V domains shown, Humanized m22E11) VH: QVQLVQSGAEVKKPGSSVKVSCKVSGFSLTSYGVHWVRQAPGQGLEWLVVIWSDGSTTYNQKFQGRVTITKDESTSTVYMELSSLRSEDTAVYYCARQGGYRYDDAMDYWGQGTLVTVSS VL: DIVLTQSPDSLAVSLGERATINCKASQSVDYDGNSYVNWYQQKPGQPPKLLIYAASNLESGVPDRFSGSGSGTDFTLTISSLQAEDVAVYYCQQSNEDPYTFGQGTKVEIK', 1),
  ('h22E11-VK4-1 × h22E11-VH5-51 (antibody, V domains shown, Humanized m22E11) VH: EVQLVQSGAEVKKPGESLKISCKVSGFSLTSYGVHWVRQMPGKGLEWLVVIWSDGSTTYNPSFQGQVTISKDKSISTVYLQWSSLKASDTAMYYCARQGGYRYDDAMDYWGQGTLVTVSS VL: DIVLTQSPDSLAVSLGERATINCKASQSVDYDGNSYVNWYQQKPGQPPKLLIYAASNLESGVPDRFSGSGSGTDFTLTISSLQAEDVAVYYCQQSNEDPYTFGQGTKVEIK', 0.8),
  ('h22E11-VK3-11 × h22E11-VH1-69 (antibody, V domains shown, Humanized m22E11) VH: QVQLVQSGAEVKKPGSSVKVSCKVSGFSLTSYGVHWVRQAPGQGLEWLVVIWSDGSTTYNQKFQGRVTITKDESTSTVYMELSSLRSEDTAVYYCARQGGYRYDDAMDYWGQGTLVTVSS VL: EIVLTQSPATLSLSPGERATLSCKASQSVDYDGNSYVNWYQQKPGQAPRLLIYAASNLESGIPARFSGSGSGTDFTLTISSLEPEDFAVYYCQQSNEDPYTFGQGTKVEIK', 1),
  ('h22E11-VK3-11 × h22E11-VH5-51 (antibody, V domains shown, Humanized m22E11) VH: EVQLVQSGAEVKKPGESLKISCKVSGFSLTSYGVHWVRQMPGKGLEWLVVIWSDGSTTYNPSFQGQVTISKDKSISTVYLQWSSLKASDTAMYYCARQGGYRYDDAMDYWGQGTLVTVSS VL: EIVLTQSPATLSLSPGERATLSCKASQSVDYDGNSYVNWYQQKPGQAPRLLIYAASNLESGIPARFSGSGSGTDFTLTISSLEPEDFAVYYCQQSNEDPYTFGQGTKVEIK', 0.8);

Q: I'd like to know its Kd. The binder in question is h22E11-VK2-28 × h22E11-VH5-51 (antibody, V domains shown, Humanized m22E11) VH: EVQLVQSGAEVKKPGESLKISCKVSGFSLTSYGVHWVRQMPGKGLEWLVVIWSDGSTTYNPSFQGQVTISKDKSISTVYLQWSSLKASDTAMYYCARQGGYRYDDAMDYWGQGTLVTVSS VL: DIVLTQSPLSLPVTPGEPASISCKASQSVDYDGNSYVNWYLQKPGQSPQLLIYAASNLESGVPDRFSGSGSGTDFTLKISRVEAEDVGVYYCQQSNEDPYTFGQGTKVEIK
A: 0.6

Q: Could you do the same for h22E11-VK2-28 × h22E11-VH3-23 (antibody, V domains shown, Humanized m22E11) VH: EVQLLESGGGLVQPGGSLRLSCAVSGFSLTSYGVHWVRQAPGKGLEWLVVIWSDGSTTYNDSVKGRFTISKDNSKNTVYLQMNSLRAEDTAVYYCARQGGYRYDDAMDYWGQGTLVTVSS VL: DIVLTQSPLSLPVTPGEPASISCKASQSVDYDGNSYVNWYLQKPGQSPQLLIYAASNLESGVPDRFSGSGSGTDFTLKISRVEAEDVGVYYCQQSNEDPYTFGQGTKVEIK , please?
A: 0.8
